# assay.system: UniProtKB P53396
# Sequence (P53396 whole entry): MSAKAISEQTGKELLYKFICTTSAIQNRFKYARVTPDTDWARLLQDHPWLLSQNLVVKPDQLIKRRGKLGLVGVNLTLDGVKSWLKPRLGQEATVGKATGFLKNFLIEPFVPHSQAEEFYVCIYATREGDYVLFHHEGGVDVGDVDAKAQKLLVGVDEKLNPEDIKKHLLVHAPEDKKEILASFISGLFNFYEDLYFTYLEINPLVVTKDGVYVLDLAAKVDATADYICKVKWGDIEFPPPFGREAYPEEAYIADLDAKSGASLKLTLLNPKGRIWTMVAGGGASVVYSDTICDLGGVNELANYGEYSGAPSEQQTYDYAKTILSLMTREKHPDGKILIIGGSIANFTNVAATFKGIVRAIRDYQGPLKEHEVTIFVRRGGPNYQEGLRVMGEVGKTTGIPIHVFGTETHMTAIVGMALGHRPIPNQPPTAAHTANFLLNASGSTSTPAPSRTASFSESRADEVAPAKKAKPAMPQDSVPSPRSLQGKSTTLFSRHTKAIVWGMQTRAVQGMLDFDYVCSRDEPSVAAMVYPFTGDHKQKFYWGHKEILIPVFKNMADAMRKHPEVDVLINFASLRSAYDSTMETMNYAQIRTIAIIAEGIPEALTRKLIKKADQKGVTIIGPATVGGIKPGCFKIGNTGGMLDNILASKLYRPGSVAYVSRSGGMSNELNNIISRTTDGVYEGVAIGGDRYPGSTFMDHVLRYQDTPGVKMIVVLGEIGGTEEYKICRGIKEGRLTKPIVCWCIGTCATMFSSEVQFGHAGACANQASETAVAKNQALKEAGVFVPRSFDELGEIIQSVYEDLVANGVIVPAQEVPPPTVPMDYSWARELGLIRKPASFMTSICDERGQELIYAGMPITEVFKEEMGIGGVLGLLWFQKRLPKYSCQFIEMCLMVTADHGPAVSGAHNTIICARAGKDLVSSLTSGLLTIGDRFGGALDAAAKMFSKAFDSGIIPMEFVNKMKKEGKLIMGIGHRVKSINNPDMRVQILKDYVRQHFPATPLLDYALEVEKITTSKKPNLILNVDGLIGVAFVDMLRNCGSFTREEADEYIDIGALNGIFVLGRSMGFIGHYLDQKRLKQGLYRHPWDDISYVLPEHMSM
# assay.name: Inhibition of ATP citrate lyase (unknown origin) at 10 uM using sodium citrate as substrate after 60 mins by ADP-Glo luminescence assay relative to control
Catalogue of compounds with associated inhibition
Provide the reading as a plain figure in %.

[[record]]
line_notation = "Cc1cc(O)c2c(c1)C(=O)c1cc(O)cc(O)c1C2=O"
assay_system = "UniProtKB P53396"
outcome_measure = "inhibition"
reported_value = 0


Query: Consider the compound shown here: "Cc1cc(O)c2c(c1)C(=O)c1cc(O)c(CN3CCCCC3)c(O)c1C2=O" What is its recorded inhibition?
Response: 6

Query: Same question for "Cc1cc(O)c2c(c1)C(=O)c1cc(O)c(-c3ccccc3)c(O)c1C2=O" please.
Response: 8

Query: Queued: "Cc1cc(O)c2c(c1)C(=O)c1cc(O)c(-c3ccncc3)c(O)c1C2=O"
Response: 0

All values here come from ChEMBL document CHEMBL4000187.
